B1: TFE3 (parent)
chain: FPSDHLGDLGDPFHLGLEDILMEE

Variants of: B1
protocol_description: protein stability index of a GFP-peptide fusion (GPS, HEK-293T) (PSI 1-6); higher = more stable;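 further: lentivirally expressed fusions sorted by FACS into six bins by GFP to DsRed ratio, PSI derived from sequencing read proportions per bin multiplied by bin number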
condition_parameters: c terminus: a fixed tail appended
Rule: protein stability index under 3 gives Condition not met, otherwise Condition met.

{"mutation_name": "L9Q", "class_assignment": "Condition met"}
{"mutation_name": "L21M", "class_assignment": "Condition met"}
{"mutation_name": "E18F", "class_assignment": "Condition not met"}
{"mutation_name": "S3F", "class_assignment": "Condition not met"}
{"mutation_name": "P12H", "class_assignment": "Condition met"}
{"mutation_name": "L6K", "class_assignment": "Condition met"}
{"mutation_name": "F1S", "class_assignment": "Condition met"}
{"mutation_name": "D19Q", "class_assignment": "Condition not met"}
{"mutation_name": "P2E", "class_assignment": "Condition met"}
{"mutation_name": "L9W", "class_assignment": "Condition not met"}
{"mutation_name": "F13N", "class_assignment": "Condition met"}
{"mutation_name": "G7H", "class_assignment": "Condition met"}
{"mutation_name": "E18Q", "class_assignment": "Condition not met"}
{"mutation_name": "G10W", "class_assignment": "Condition not met"}
{"mutation_name": "L9A", "class_assignment": "Condition met"}
{"mutation_name": "P2C", "class_assignment": "Condition not met"}
{"mutation_name": "L21I", "class_assignment": "Condition met"}
{"mutation_name": "E24F", "class_assignment": "Condition not met"}
{"mutation_name": "G10K", "class_assignment": "Condition met"}
